Assay: Aqueous solubility of compound
Assay type: physicochemical
Conditions: buffer
Quick reference: solubility of the listed items.

| record-smiles | result |
| --- | --- |
| Cc1cc(Nc2cc(F)c(C(F)(F)F)c(F)c2)n2ncnc2n1 | 9 to 18 µM |
| Cc1cc(Nc2ccc(C(F)(F)F)nc2)n2nc(C(C)(F)F)nc2n1 | > 100 µM |
| Cc1cc(Nc2ccc(S(F)(F)(F)(F)F)cc2)n2nc(C(C)(F)F)nc2n1 | 70 to 140 µM |

Okay, next one:
solubility reported for this molecule Cc1cc(Nc2ccc3ccccc3c2)n2ncnc2n1 : 45 to 90 µM
